System: human cervical tumor cell line HeLa (ATCC CCL-2)
Assay: SAC-Formation - Nocodazole-Induced Assay
Format: cell-based
Settings: Homo sapiens, HeLa, 24 h, HeLa cells, nocodazole 0.1 μg/ml together with test compound, decrease of mitotic cells (phospho-histone H3 Ser10)
READOUT_LABEL: IC50 (nM)
One number for each entry, in nM.

Working through the 3 molecules below one at a time, give IC50 for each.
1. Cc1nsc(Nc2cnc(C(F)(F)F)cn2)c1C(=O)Nc1ccc(OC2CCN(CC(F)(F)F)CC2)c(F)c1
2. Cc1nsc(Nc2cnc3ccccc3n2)c1C(=O)Nc1ccc(NC2CCCN(C(=O)OC(C)(C)C)C2)nc1 (centres unmarked)
3. Cc1nsc(Nc2cnc(C(F)(F)F)cn2)c1C(=O)Nc1ccc(C(=O)NC2CN(CC(F)F)C2)cc1

61
1400
1100

====

System: human cervical tumor cell line HeLa (ATCC CCL-2)
Experiment: SAC-Formation - Nocodazole-Induced Assay
Assay type: cell-based
Details: Homo sapiens, HeLa, 24 h, HeLa cells, nocodazole 0.1 μg/ml together with test compound, decrease of mitotic cells (phospho-histone H3 Ser10)
READOUT_LABEL: IC50 (nM)
One number for each entry, in nM.

compound="Cc1nsc(Nc2cnc(C(F)(F)F)cn2)c1C(=O)Nc1ccc(F)c(OC2CCN(CC(F)(F)F)CC2)c1 [Example 264]" recorded_value=35
compound="Cc1nsc(Nc2cc(C#N)ccn2)c1C(=O)Nc1cccc(C(=O)NC2CC2)c1 [Example 175]" recorded_value=2200

Working through the 3 compounds below one at a time, give IC50 for each.
1. Cc1nsc(Nc2cnc(C(F)(F)F)cn2)c1C(=O)Nc1ccc(F)c(OC[C@@H]2CCN(CC(F)(F)F)C2)c1 [Example 339]
2. Cc1nsc(Nc2cnc(C(F)(F)F)cn2)c1C(=O)Nc1cccc(NC(=O)OC(C)(C)C)c1 [Example 284]
3. Cc1nsc(Nc2cc(C#N)ccn2)c1C(=O)Nc1cccc(C(=O)NC(C)C)c1 [Example 254]

1. 40
2. 76
3. 2800

Working through the 3 compounds below one at a time, give IC50 for each.
1. Cc1nsc(Nc2cnc3ccccc3n2)c1C(=O)Nc1ccc(C(=O)NCCN2CCCC(F)(F)C2)cc1 [Example 156]
2. Cc1nsc(Nc2cncc(C(F)(F)F)n2)c1C(=O)Nc1ccc(OCCN)nc1 [Example 196]
3. Cc1nsc(Nc2cncc(C(F)(F)F)n2)c1C(=O)Nc1ccc(OCC2CCCN(C(=O)OC(C)(C)C)C2)nc1 (centres unmarked) [Example 166]

[2100, 1300, 52]
